Tested on: S. aureus MSSA476
Construct: MSSA476
Parameters: species or system S. aureus MSSA476 (TSB) or V. cholerae SAD30 (LB); 384-well bacterial growth screen at 25 uM, OD600 relative to DMSO control
Protocol Conditions: relative growth, OD600, TSB; 25 µM; inhibitor
Out of some 3,200 compounds screened, about 75 (2%) showed an effect of 50% or more. The sample holds strong results, similar compounds and a random draw of the others, so the mix is not that of the screen.
Assay Metric: % of control remaining (%)
The reply should be a number in %, with the unit left off.

                                   molecule  recorded_number
0                  COc1ccc(C(=O)CCl)c(OC)c1          124.375
1                 O=C1C=CC(=O)N1CCc1ccccc1F            4.375
2  CC(Cl)C(=O)NC(C)c1ccc(C(F)(F)F)nc1Cl (stereo not drawn)          111.774

Log: S. aureus MSSA476, molecule `C=CCNC(=O)C(C#N)=Cc1sccc1C` , % of control remaining = 115.955

Log: S. aureus MSSA476, molecule O=C(CCl)N1N=C(c2ccco2)CC1c1cccc(Cl)c1 (stereo not drawn) , % of control remaining = 81.9672

Log: S. aureus MSSA476, molecule `Cc1ccc(-n2c(C)cc(C(=O)CCl)c2C)cc1F` , % of control remaining = -0.3125

Log: S. aureus MSSA476, molecule `Cc1cccc(-n2c(C)cc(C(=O)CCl)c2C)c1` , % of control remaining = 138.438
